Consider the following compounds; for each one, report its IC50.
# Tested on: B16
# TEST_PROTOCOL: In vitro antitumor activity against murine melanoma cells (B16 melanoma cells)
# Format: functional
# ASSAY_CONDITIONS: Mus musculus, read-out: ID50 (the source's name)
*1 amine or outer side, *2 acyl side, *3 side chain or, on linkers, in order; H or OH if unused. Where a SMILES comes first, the peptide text is derived from it. Bridges are numbered along the chain shown (N, C = ends). Roman numbers before positions name the chains, in order. [ ]: non-standard residue; d: D form. Actinocin(9to1) = Cc1c2oc3c(C)ccc(C(=O)[*:1])c3nc-2c(C(=O)[*:2])c(N)c1=O; NMeV = CN[C@H](C(=O)O)C(C)C; Sar = CNCC(=O)O
Numeric only. Scale: µg/mL

Form: compound = Cc1c2oc3c(C)c(OCC4CC4)cc(C(=O)N[C@@H]4C(=O)N[C@H](C(C)C)C(=O)N5CCC[C@H]5C(=O)N(C)CC(=O)N(C)[C@@H](C(C)C)C(=O)O[C@@H]4C)c3nc-2c(C(=O)N[C@@H]2C(=O)N[C@H](C(C)C)C(=O)N3CCC[C@H]3C(=O)N(C)CC(=O)N(C)[C@@H](C(C)C)C(=O)O[C@@H]2C)c(N)c1=O ; IC50 = 0.038

Recorded IC50 (compound Cc1c2oc3c(C)c(OCC(C)N)cc(C(=O)N[C@@H]4C(=O)N[C@H](C(C)C)C(=O)N5CCC[C@H]5C(=O)N(C)CC(=O)N(C)[C@@H](C(C)C)C(=O)O[C@@H]4C)c3nc-2c(C(=O)N[C@@H]2C(=O)N[C@H](C(C)C)C(=O)N3CCC[C@H]3C(=O)N(C)CC(=O)N(C)[C@@H](C(C)C)C(=O)O[C@@H]2C)c(N)c1=O (stereo partly drawn) ): 0.055

The measured IC50 associated with Cc1c2oc3c(C)ccc(C(=O)N[C@@H]4C(=O)N[C@H](C(C)C)C(=O)N5CCC[C@H]5C(=O)N(C)CC(=O)N(C)[C@@H](C(C)C)C(=O)O[C@@H]4C)c3nc-2c(C(=O)N[C@@H]2C(=O)N[C@H](C(C)C)C(=O)N3CCC[C@H]3C(=O)N(C)CC(=O)N(C)[C@@H](C(C)C)C(=O)O[C@@H]2C)c(N)c1=O [DACTINOMYCIN] (I: T[dV]P[Sar][NMeV] / II: T[dV]P[Sar][NMeV]; ester I:1-I:C, II:1-II:C; linker I:N-II:N via Actinocin(9to1)) reads 0.0033

----------
# TEST_PROTOCOL: The delta Tm value is a measure of a stabilization of the DNA helical structure as consequence of compound binding
# Type: ADME
*1 amine or outer side, *2 acyl side, *3 side chain or, on linkers, in order; H or OH if unused. Where a SMILES comes first, the peptide text is derived from it. Bridges are numbered along the chain shown (N, C = ends). Roman numbers before positions name the chains, in order. [ ]: non-standard residue; d: D form. Actinocin(9to1) = Cc1c2oc3c(C)ccc(C(=O)[*:1])c3nc-2c(C(=O)[*:2])c(N)c1=O; NMeV = CN[C@H](C(=O)O)C(C)C; Sar = CNCC(=O)O
Use 2 C as the dividing line for Delta Tm, with the line itself on the TRUE side and lower values as FALSE.

Input: Hi team, for Cc1c2oc3c(C)c(OCC(C)N)cc(C(=O)N[C@@H]4C(=O)N[C@H](C(C)C)C(=O)N5CCC[C@H]5C(=O)N(C)CC(=O)N(C)[C@@H](C(C)C)C(=O)O[C@@H]4C)c3nc-2c(C(=O)N[C@@H]2C(=O)N[C@H](C(C)C)C(=O)N3CCC[C@H]3C(=O)N(C)CC(=O)N(C)[C@@H](C(C)C)C(=O)O[C@@H]2C)c(N)c1=O (stereo partly specified) , is the recorded Delta Tm at or above 2 C?
Output: TRUE

Input: Has Cc1c2oc3c(C)c(OCCNCCO)cc(C(=O)N[C@@H]4C(=O)N[C@H](C(C)C)C(=O)N5CCC[C@H]5C(=O)N(C)CC(=O)N(C)[C@@H](C(C)C)C(=O)O[C@@H]4C)c3nc-2c(C(=O)N[C@@H]2C(=O)N[C@H](C(C)C)C(=O)N3CCC[C@H]3C(=O)N(C)CC(=O)N(C)[C@@H](C(C)C)C(=O)O[C@@H]2C)c(N)c1=O a recorded Delta Tm greater than or equal to 2 C?
Output: FALSE

Input: Threshold query (Delta Tm >= 2 C) on Cc1c2oc3c(C)c(OCC4CC4)cc(C(=O)N[C@@H]4C(=O)N[C@H](C(C)C)C(=O)N5CCC[C@H]5C(=O)N(C)CC(=O)N(C)[C@@H](C(C)C)C(=O)O[C@@H]4C)c3nc-2c(C(=O)N[C@@H]2C(=O)N[C@H](C(C)C)C(=O)N3CCC[C@H]3C(=O)N(C)CC(=O)N(C)[C@@H](C(C)C)C(=O)O[C@@H]2C)c(N)c1=O
Output: FALSE

Input: Check this molecule for Delta Tm at or above 2 C: Cc1c2oc3c(C)c(OCC4CN4)cc(C(=O)N[C@@H]4C(=O)N[C@H](C(C)C)C(=O)N5CCC[C@H]5C(=O)N(C)CC(=O)N(C)[C@@H](C(C)C)C(=O)O[C@@H]4C)c3nc-2c(C(=O)N[C@@H]2C(=O)N[C@H](C(C)C)C(=O)N3CCC[C@H]3C(=O)N(C)CC(=O)N(C)[C@@H](C(C)C)C(=O)O[C@@H]2C)c(N)c1=O (stereo partly specified)
Output: TRUE

Input: Record Cc1c2oc3c(C)ccc(C(=O)N[C@@H]4C(=O)N[C@H](C(C)C)C(=O)N5CCC[C@H]5C(=O)N(C)CC(=O)N(C)[C@@H](C(C)C)C(=O)O[C@@H]4C)c3nc-2c(C(=O)N[C@@H]2C(=O)N[C@H](C(C)C)C(=O)N3CCC[C@H]3C(=O)N(C)CC(=O)N(C)[C@@H](C(C)C)C(=O)O[C@@H]2C)c(N)c1=O [DACTINOMYCIN] (I: T[dV]P[Sar][NMeV] / II: T[dV]P[Sar][NMeV]; ester I:1-I:C, II:1-II:C; linker I:N-II:N via Actinocin(9to1)) ; criterion: Delta Tm no lower than 2 C. Met?
Output: TRUE

Input: Is Delta Tm at least 2 C? Consider Cc1c2oc3c(C)c(OCCN4CC4)cc(C(=O)N[C@@H]4C(=O)N[C@H](C(C)C)C(=O)N5CCC[C@H]5C(=O)N(C)CC(=O)N(C)[C@@H](C(C)C)C(=O)O[C@@H]4C)c3nc-2c(C(=O)N[C@@H]2C(=O)N[C@H](C(C)C)C(=O)N3CCC[C@H]3C(=O)N(C)CC(=O)N(C)[C@@H](C(C)C)C(=O)O[C@@H]2C)c(N)c1=O
Output: FALSE
